Data provenance is the supplement of paper PMC10567573.

Parameter protein stability index: see the listing below.
B1: ZNF75A (parent)
chain: RTHTGEQPYTCSICRRNFSRRSSL

variants of: B1; assay: protein stability index of a GFP-peptide fusion (GPS, HEK-293T) (PSI 1-6); higher = more stable; settings: c terminus: a fixed tail appended;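 also: lentivirally expressed fusions sorted by FACS into six bins by GFP to DsRed ratio, PSI derived from sequencing read proportions per bin multiplied by bin number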
Please state the value as a number alone, without comment.

{"VARIANT DESCRIPTOR": "S22L", "protein stability index": 2.91}

Report protein stability index for S19R please.
2.99

I am curious: what protein stability index value has been reported for G5D ?
3.06
